B1: Far upstream element-binding protein 1, residues 184 to 257; numbered along this chain, Q96AE4 (parent)
chain: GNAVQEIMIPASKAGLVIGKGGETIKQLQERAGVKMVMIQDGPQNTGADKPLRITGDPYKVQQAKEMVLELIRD

Variants of: B1
Assay: abundance fitness (aPCA) (normalised: wild type 0, dead -1); higher = more abundant; growth selection in yeast, the domain comes from the species named
Settings: Homo sapiens
Measurement type: abundance fitness
Reply with the value as a number alone.

Exercise: Specify measured abundance fitness for `T24H` .
Key: -0.029
